The molecules listed here are annotated with their relative viability.
system: HCC-78; experiment: relative viability (nuclei count vs DMSO), 5 days (fraction); higher = more cells survive; conditions: first compound 6.325 µM
Lab note: write the figure by itself, no unit.

Would you please look over these solved cases?
MOLECULE | relative viability
COCC1(CO)C(=O)C2CCN1CC2 (stereo not drawn) [PRIMA-1MET] + Nc1nc2[nH]cc(CCc3ccc(C(=O)N[C@@H](CCC(=O)O)C(=O)O)cc3)c2c(=O)[nH]1 [Pemetrexed] (partner 0.2 µM) | 0.832
COCC1(CO)C(=O)C2CCN1CC2 (stereo not drawn) [PRIMA-1MET] + CC(C)C[C@H](NC(=O)[C@H](Cc1ccccc1)NC(=O)c1cnccn1)B(O)O [Bortezomib] (partner 0.002 µM) | 0.485
COCC1(CO)C(=O)C2CCN1CC2 (stereo not drawn) [PRIMA-1MET] + CS(=O)(=O)N1CCN(Cc2cc3nc(-c4cccc5[nH]ncc45)nc(N4CCOCC4)c3s2)CC1 [Pictilisib] (partner 1 µM) | 0.138
COCC1(CO)C(=O)C2CCN1CC2 (stereo not drawn) [PRIMA-1MET] + CS(=O)(=O)CCNCc1ccc(-c2ccc3ncnc(Nc4ccc(OCc5cccc(F)c5)c(Cl)c4)c3c2)o1 [Lapatinib] (partner 2 µM) | 0.78

Input line: What relative viability value was documented for this molecule, COCC1(CO)C(=O)C2CCN1CC2 (stereo not drawn) [PRIMA-1MET] + O=C(CCCCCCC(=O)Nc1ccccc1)NO [Vorinostat] (partner 1 µM) ?
Output line: 0.403

Input line: What relative viability value was documented for this molecule, COCC1(CO)C(=O)C2CCN1CC2 (stereo not drawn) [PRIMA-1MET] + CC(=O)Nc1cccc(-n2c(=O)n(C3CC3)c(=O)c3c(Nc4ccc(I)cc4F)n(C)c(=O)c(C)c32)c1 [Trametinib] (partner 0.02 µM) ?
Output line: 0.596

Input line: What relative viability value was documented for this molecule, COCC1(CO)C(=O)C2CCN1CC2 (stereo not drawn) [PRIMA-1MET] + Cc1nc(NC(=O)N2CCC[C@H]2C(N)=O)sc1-c1ccnc(C(C)(C)C(F)(F)F)c1 [Alpelisib] (partner 2 µM) ?
Output line: 0.335

Input line: What relative viability value was documented for this molecule, COCC1(CO)C(=O)C2CCN1CC2 (stereo not drawn) [PRIMA-1MET] + Nc1ncn([C@H]2C[C@H](O)[C@@H](CO)O2)c(=O)n1 [Decitabine] (partner 2 µM) ?
Output line: 0.697

###

system: NCI-H1395; test: relative viability (nuclei count vs DMSO), 5 days (fraction); higher = more cells survive; details: first compound 1 µM
The compounds listed here are annotated with their relative viability.
Lab note: write the figure by itself, no unit.

COMPOUND | TEST_TARGET | NUMERIC_VALUE
CCN(CC)CCCCNc1ncc2cc(-c3cc(OC)cc(OC)c3)c(NC(=O)NC(C)(C)C)nc2n1 + CC(=O)c1c(C)c2cnc(Nc3ccc(N4CCNCC4)cn3)nc2n(C2CCCC2)c1=O [Palbociclib] (partner 0.5 µM) | NCI-H1395 | 0.448

Input line: # get_value(readout= relative viability, system= NCI-H1395) for O=c1cc(N2CCOCC2)oc2c(-c3cccc4c3sc3ccccc34)cccc12 + C[C@]1(O)C[C@@H](c2nc(-c3ccc4ccc(-c5ccccc5)nc4c3)c3c(N)nccn32)C1 [Linsitinib] (partner 1 µM)
Output line: 1.2

Input line: # get_value(readout= relative viability, system= NCI-H1395) for O=c1cc(N2CCOCC2)oc2c(-c3cccc4c3sc3ccccc34)cccc12 + Cc1nc(Nc2ncc(C(=O)Nc3c(C)cccc3Cl)s2)cc(N2CCN(CCO)CC2)n1 [Dasatinib] (partner 0.075 µM)
Output line: 0.454

Input line: # get_value(readout= relative viability, system= NCI-H1395) for O=c1cc(N2CCOCC2)oc2c(-c3cccc4c3sc3ccccc34)cccc12 + CCNC(=O)c1noc(-c2cc(C(C)C)c(O)cc2O)c1-c1ccc(CN2CCOCC2)cc1 [Luminespib] (partner 0.01 µM)
Output line: 0.532

Input line: # get_value(readout= relative viability, system= NCI-H1395) for O=c1cc(N2CCOCC2)oc2c(-c3cccc4c3sc3ccccc34)cccc12 + CC(=O)Nc1cccc(-n2c(=O)n(C3CC3)c(=O)c3c(Nc4ccc(I)cc4F)n(C)c(=O)c(C)c32)c1 [Trametinib] (partner 0.02 µM)
Output line: 1.01

Input line: # get_value(readout= relative viability, system= NCI-H1395) for O=c1cc(N2CCOCC2)oc2c(-c3cccc4c3sc3ccccc34)cccc12 + Nc1ncn([C@H]2C[C@H](O)[C@@H](CO)O2)c(=O)n1 [Decitabine] (partner 2 µM)
Output line: 0.692

Input line: # get_value(readout= relative viability, system= NCI-H1395) for CCN(CC)CCCCNc1ncc2cc(-c3cc(OC)cc(OC)c3)c(NC(=O)NC(C)(C)C)nc2n1 + Cc1cc(Nc2cc(N3CCN(C)CC3)nc(Sc3ccc(NC(=O)C4CC4)cc3)n2)n[nH]1 [Tozasertib] (partner 0.1 µM)
Output line: 0.547

Input line: # get_value(readout= relative viability, system= NCI-H1395) for CCN(CC)CCCCNc1ncc2cc(-c3cc(OC)cc(OC)c3)c(NC(=O)NC(C)(C)C)nc2n1 + N=C(N)NC(=N)NCCc1ccccc1 [Phenformin] (partner 250 µM)
Output line: 0.397

Input line: # get_value(readout= relative viability, system= NCI-H1395) for CCN(CC)CCCCNc1ncc2cc(-c3cc(OC)cc(OC)c3)c(NC(=O)NC(C)(C)C)nc2n1 + CC(=O)Nc1cccc(-n2c(=O)n(C3CC3)c(=O)c3c(Nc4ccc(I)cc4F)n(C)c(=O)c(C)c32)c1 [Trametinib] (partner 0.02 µM)
Output line: 0.568

Input line: # get_value(readout= relative viability, system= NCI-H1395) for O=c1cc(N2CCOCC2)oc2c(-c3cccc4c3sc3ccccc34)cccc12 + Nc1nc2[nH]cc(CCc3ccc(C(=O)N[C@@H](CCC(=O)O)C(=O)O)cc3)c2c(=O)[nH]1 [Pemetrexed] (partner 0.2 µM)
Output line: 0.855

The values you see were collected from the supplement of paper PMC10307832.
